Molecular target: IKZF2 (Homo sapiens, UniProt Q96SW2+Q9UKS7)
Sequence (Q9UKS7 1-500 isoform Q9UKS7-2): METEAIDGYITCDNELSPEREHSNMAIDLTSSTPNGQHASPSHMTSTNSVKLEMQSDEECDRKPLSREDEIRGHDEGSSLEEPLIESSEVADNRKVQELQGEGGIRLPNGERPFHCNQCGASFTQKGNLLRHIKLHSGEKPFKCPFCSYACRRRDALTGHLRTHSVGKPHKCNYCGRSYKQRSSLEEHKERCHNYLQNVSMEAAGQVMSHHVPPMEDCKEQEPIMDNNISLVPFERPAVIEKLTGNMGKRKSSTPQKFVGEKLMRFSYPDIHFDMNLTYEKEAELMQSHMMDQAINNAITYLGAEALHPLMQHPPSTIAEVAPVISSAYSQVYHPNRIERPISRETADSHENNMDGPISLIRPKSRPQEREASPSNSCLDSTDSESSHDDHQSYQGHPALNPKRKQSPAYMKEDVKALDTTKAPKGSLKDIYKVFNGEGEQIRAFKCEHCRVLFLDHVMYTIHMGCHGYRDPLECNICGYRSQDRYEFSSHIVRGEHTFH
Sequence (Q96SW2 whole entry): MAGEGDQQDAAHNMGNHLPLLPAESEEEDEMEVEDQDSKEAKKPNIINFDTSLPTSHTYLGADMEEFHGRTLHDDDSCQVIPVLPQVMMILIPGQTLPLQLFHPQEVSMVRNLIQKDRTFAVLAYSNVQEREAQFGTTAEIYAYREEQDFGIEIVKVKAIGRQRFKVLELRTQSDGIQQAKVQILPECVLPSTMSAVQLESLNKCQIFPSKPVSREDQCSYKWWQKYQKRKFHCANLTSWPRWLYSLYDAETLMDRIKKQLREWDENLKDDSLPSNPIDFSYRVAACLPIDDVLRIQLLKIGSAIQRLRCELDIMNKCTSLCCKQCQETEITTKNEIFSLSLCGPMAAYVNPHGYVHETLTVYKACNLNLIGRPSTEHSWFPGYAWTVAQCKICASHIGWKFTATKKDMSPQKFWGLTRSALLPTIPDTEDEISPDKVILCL
Sequence (Q16531 whole entry partner): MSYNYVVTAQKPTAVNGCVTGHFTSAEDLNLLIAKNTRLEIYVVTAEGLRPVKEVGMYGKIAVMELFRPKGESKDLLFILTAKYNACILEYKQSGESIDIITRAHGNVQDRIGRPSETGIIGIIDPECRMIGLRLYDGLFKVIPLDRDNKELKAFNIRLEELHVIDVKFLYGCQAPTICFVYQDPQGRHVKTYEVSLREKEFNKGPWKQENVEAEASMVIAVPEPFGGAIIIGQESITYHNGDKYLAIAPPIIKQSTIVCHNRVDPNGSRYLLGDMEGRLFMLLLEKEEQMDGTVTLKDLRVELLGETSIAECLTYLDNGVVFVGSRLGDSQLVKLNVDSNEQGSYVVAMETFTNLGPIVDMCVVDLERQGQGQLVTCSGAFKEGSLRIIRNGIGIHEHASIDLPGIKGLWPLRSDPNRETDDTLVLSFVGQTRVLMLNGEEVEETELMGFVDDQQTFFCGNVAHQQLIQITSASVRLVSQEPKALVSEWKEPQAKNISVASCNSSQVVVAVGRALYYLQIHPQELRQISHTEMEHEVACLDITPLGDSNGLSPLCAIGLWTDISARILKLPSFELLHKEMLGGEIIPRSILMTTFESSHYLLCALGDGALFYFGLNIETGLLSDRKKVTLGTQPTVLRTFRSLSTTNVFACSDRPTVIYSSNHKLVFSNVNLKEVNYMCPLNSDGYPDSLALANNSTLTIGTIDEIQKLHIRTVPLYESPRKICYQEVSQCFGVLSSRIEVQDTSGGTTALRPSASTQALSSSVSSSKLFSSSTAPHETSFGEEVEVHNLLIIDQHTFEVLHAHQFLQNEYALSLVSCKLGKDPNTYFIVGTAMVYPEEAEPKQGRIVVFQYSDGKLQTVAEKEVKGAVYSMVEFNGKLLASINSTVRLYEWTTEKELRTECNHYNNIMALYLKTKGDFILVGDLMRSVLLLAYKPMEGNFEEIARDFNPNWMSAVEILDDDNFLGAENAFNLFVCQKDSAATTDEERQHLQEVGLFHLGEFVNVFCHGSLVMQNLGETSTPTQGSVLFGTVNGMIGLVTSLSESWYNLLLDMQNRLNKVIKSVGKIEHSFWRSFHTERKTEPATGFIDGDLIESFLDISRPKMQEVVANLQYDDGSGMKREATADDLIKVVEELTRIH
Assay: HEK293 HiBiT in vitro degradation of IKZF2
Type: cell-based
Design: expressed in transfected cells
Settings: HEK293 HiBiT, 18-24 hr incubation, normalized to DMSO control; read-out: IKZF2 EC50
// classify: if (DC50 < 30 nM) 1.0 else 0.0

COc1ccccc1CCN[C@H]1CCCC[C@@H]1Cc1ccc2c(c1)CN(C1CCC(=O)NC1=O)C2=O (some centres unmarked) [Example 76] ... 0.0

Answer whether the compound O=C1CCC(N2Cc3cc(C[C@H]4CCCC[C@@H]4NCc4ccc(F)cn4)ccc3C2=O)C(=O)N1 (some centres unmarked) [Example 49] has DC50 strictly less than 30 nM
0.0

Find out if reported DC50 for O=C1CCC(N2Cc3cc(C[C@H]4CCC[C@@H]4NC4CCC(F)(F)CC4)ccc3C2=O)C(=O)N1 (some centres unmarked) [Example 178] is less than 30 nM
0.0

hey, is DC50 for O=C1CCC(N2Cc3cc(C[C@H]4CCCC[C@@H]4NCCCC(F)F)ccc3C2=O)C(=O)N1 (some centres unmarked) [Example 135] lower than 30 nM or not?
1.0

Does the reported DC50 of CCC(CC)N[C@H]1CCCC[C@@H]1Cc1ccc2c(c1)CN(C1CCC(=O)NC1=O)C2=O (some centres unmarked) [Example 23] stay below 30 nM?
1.0

Bench note: check whether O=C1CCC(N2Cc3cc(C[C@H]4CCCC[C@@H]4NCc4cccnc4)ccc3C2=O)C(=O)N1 (some centres unmarked) [Example 41] shows DC50 below 30 nM
1.0

# check: DC50 < 30 nM for O=C1CCC(N2Cc3c(ccc(C[C@H]4OCCC[C@@H]4NC4CCCOC4)c3F)C2=O)C(=O)N1 (single isomer, unassigned) [Example 262]
0.0

Lab note: DC50 threshold 30 nM. Does this compound come in strictly under it? O=C1CCC(N2Cc3cc(C[C@H]4CCCC[C@@H]4NCC4CCOC4)ccc3C2=O)C(=O)N1 (some centres unmarked) [Example 69]
1.0

###

Target: IKZF1 (Homo sapiens, UniProt Q13422+Q96SW2)
Construct: expressed in transfected cells
Sequence (Q13422 whole entry, one chain of several): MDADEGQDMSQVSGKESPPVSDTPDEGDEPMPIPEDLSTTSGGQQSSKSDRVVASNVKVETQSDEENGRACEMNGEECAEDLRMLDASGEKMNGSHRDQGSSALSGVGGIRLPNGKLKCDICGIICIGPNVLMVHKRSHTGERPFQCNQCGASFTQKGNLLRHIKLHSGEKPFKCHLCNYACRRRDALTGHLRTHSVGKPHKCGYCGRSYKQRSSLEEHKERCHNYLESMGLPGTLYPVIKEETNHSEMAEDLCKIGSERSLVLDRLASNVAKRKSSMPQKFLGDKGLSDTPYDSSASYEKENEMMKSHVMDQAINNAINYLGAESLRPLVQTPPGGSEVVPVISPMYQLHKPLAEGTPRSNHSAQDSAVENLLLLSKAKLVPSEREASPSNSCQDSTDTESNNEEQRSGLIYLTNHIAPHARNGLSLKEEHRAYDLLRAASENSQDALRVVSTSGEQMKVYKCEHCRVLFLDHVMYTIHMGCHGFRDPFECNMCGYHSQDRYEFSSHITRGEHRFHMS
Test: HEK293 HiBiT in vitro degradation of IKZF1
Format: cell-based
Settings: HEK293 HiBiT, 18-24 hr incubation, normalized to DMSO control; read-out: IKZF1 EC50
Collected DC50 values appear next to each entry.
Give the quantity in nM, number only.

O=C1CCC(N2Cc3cc(C[C@H]4CCCC[C@@H]4NC4CCCCCC4)ccc3C2=O)C(=O)N1 (stereo partly drawn) [Example 196] ... 60
O=C1CCC(N2Cc3cc(C[C@H]4CCCC[C@@H]4NC4CCC5(CC4)CC5(F)F)ccc3C2=O)C(=O)N1 (single isomer, unassigned) [Example 271] ... 45
CC1(C)CCC(N[C@H]2CCCO[C@@H]2Cc2ccc3c(c2F)CN(C2CCC(=O)NC2=O)C3=O)C1 (single isomer, unassigned) [Example 259] ... 68
O=C1CCC(N2Cc3cc(C[C@H]4CCCC[C@@H]4NC4CCc5[nH]nc(C(F)(F)F)c5C4)ccc3C2=O)C(=O)N1 (stereo partly drawn) [Example 352] ... 323
O=C1CCC(N2Cc3c(ccc(C[C@H]4CCCC[C@@H]4NCC45CC(C4)C5)c3F)C2=O)C(=O)N1 (stereo partly drawn) [Example 96] ... 173

Supply reported DC50 belonging to this molecule: O=C1CCC(N2Cc3cc(C[C@H]4CCCC[C@@H]4NC4CCOCC4)ccc3C2=O)C(=O)N1 (stereo partly drawn) [Example 74]
226

Note down DC50 recorded for CC(C)N[C@H]1CC(F)(F)CC[C@@H]1Cc1ccc2c(c1)CN(C1CCC(=O)NC1=O)C2=O (stereo partly drawn) [Example 348]
62

Read off the recorded DC50 for O=C1CCC(N2Cc3cc(C[C@H]4CCCC[C@@H]4NC4CCC(F)(F)CC4)ccc3C2=O)C(=O)N1 (stereo partly drawn) [Example 46]
33

Provide one value: measured DC50 of O=C1CCC(N2Cc3c(ccc(C[C@H]4CCCC[C@@H]4NC4CCCC4)c3F)C2=O)C(=O)N1 (stereo partly drawn) [Example 87]
62

State its DC50 for this molecule: O=C1CCC(N2Cc3cc(C[C@H]4CCCC[C@@H]4NC4CCc5cn[nH]c5C4)ccc3C2=O)C(=O)N1 (single isomer, unassigned) [Example 359]
249
